- system-tested: KRasG12C (M1-K169, biotinylated on the N-terminus) (Homo sapiens (Human), UniProt P01116, G12C)
- assay-summary: Covalent competition assay: scintillation proximity assay (SPA) quantifying covalent modification of KRASG12C
- assay-setup: competition with radiolabeled covalent probe (Compound B/Compound A), 2 hours incubation, 10 nM KRasG12C
- Method: Cells were harvested by centrifugation and frozen at −80° C. until further processing. […] The cells were lysed by 4 passages through an Avestin Emulsiflex at about 20000 psi and insoluble debris removed by centrifugation and filtered through a 0.45 µm Durapore membrane (Millipore). […] Eluted protein fractions were analyzed by Novex NuPage 4-12% PAGE. […] Positive fractions were determined by PAGE (Novex NuPage 4-12% BisTris) analysis. […]
pIC50: −log10 of the molar value.
What pIC50 was measured for each of the following?

Examples with answers:
C=CC(=O)N1CC2(CC(n3nc(N4CC[C@@H](CN5CCOC[C@@H](O)C5)CC4(C)C)c(-c4c(Cl)c(Cl)cc5[nH]ncc45)c3C)C2)C1 (single isomer, unassigned) [Example 292b]    7.57
C=CC(=O)N1CC2(CC(n3nc(N4CC[C@@H](OCCN5CCOCC5)CC4(C)C)c(-c4c(Cl)c(Cl)cc5[nH]ncc45)c3C)C2)C1 (single isomer, unassigned) [Example 110a]    < 5.30

Consider the record given below.
Q. Could you share which pIC50 value was measured for C=CC(=O)N1CC2(CC(n3nc(N4CCC(C(=O)N(C)C)CC4(C)C)c(-c4c(Cl)c(C)cc5[nH]ncc45)c3C)C2)C1 (stereo not drawn) [Example 98a] ?
A. < 5.30

====

- system-tested: KRasG12C (M1-K169, biotinylated on the N-terminus) (Homo sapiens (Human), UniProt P01116, G12C)
- assay-summary: Covalent competition assay: scintillation proximity assay (SPA) quantifying covalent modification of KRASG12C
- assay-setup: competition with radiolabeled covalent probe (Compound B/Compound A), 2 hours incubation, 10 nM KRasG12C
What pIC50 was measured for each of the following?
Answers are plain numbers, as −log10 of the molar value.

C=CC(=O)N1CC2(CC(n3nc(N4CC[C@@H](CN5CCOC[C@@H](O)C5)CC4(C)C)c(-c4c(Cl)c(Cl)cc5[nH]ncc45)c3C)C2)C1 (single isomer, unassigned) [Example 292a]    5.72

Consider the record given below.
Q. Could you share which pIC50 value was measured for C=CC(=O)N1CC2(CC(n3nc(N4CC[C@@H](CN5CCP(C)(=O)CC5)CC4(C)C)c(-c4c(Cl)c(Cl)cc5[nH]ncc45)c3C)C2)C1 (single isomer, unassigned) [Example 269b] ?
A. 8.22

====

- system-tested: KRasG12C (M1-K169, biotinylated on the N-terminus) (Homo sapiens (Human), UniProt P01116, G12C)
- assay-summary: Covalent competition assay: scintillation proximity assay (SPA) quantifying covalent modification of KRASG12C
- assay-setup: competition with radiolabeled covalent probe (Compound B/Compound A), 2 hours incubation, 10 nM KRasG12C
- Experimental: Cells were harvested by centrifugation and frozen at −80° C. until further processing. […] The cells were lysed by 4 passages through an Avestin Emulsiflex at about 20000 psi and insoluble debris removed by centrifugation and filtered through a 0.45 µm Durapore membrane (Millipore). […] Eluted protein fractions were analyzed by Novex NuPage 4-12% PAGE. […] Positive fractions were determined by PAGE (Novex NuPage 4-12% BisTris) analysis. […]
What IC50 was measured for each of the following?
One number for each entry, in nM.

C=CC(=O)N1CC2(CC(n3nc(N4CCC(CN5CCOCC5)C4(C)C)c(-c4c(Cl)c(Cl)cc5[nH]ncc45)c3C)C2)C1 (single isomer, unassigned) [Example 219a]    1600
C=CC(=O)N1CC2(CC(n3nc(N4CCC(O)(CN5CCOCC5)CC4(C)C)c(-c4c(Cl)c(Cl)cc5[nH]ncc45)c3C)C2)C1 (single isomer, unassigned) [Example 237b]    31
C=CC(=O)N1CC2(CC(n3nc(N4CCN(c5nccn5C)C[C@]4(C)CC)c(-c4c(Cl)c(C)cc5[nH]ncc45)c3C)C2)C1 (single isomer, unassigned) [Example 194b]    1300

Batch lookup, IC50 per entry.
1. C=CC(=O)N1CC2(CC(n3nc(N4CC[C@@H](CN5CC6(CCN(C(C)=O)C6)C5)CC4(C)C)c(-c4c(Cl)c(Cl)cc5[nH]ncc45)c3C)C2)C1 (single isomer, unassigned) [Example 268a]
2. C=CC(=O)N1CC2(CC(n3nc(N4CCN(C(C)=O)CC4(C)C)c(-c4c(C)c(C)cc5[nH]ncc45)c3C)C2)C1 (single isomer, unassigned) [Example 1b]

A.
[789, 10700]

Batch lookup, IC50 per entry.
1. C=CC(=O)N1CC2(CC(n3nc(N4CCC(N(C)C(=O)COC)CC4(C)C)c(-c4c(Cl)c(C)cc5[nH]ncc45)c3C)C2)C1 (single isomer, unassigned) [Example 96b]
2. C=CC(=O)N1CC2(CC(n3nc(N4CCN(C5CCOC5)CC45CCC5)c(-c4c(Cl)c(C)cc5[nH]ncc45)c3C)C2)C1 (single isomer, unassigned) [Example 132a]
3. C=CC(=O)N1CC2(CC(n3nc(N4CCC(C(=O)N(C)C)CC4(C)C)c(-c4c(Cl)c(C)cc5[nH]ncc45)c3C)C2)C1 (single isomer, unassigned) [Example 98b]

A.
[11, 697, 19]

Batch lookup, IC50 per entry.
1. [2H]C([2H])([2H])c1c(-c2c(Cl)c(Cl)cc3[nH]ncc23)c(N2CC[C@@H](CN3CCOCC3)CC2(C)C)nn1C1CC2(C1)CN(C(=O)C=C)C2 (single isomer, unassigned) [Example 224b]
2. C=CC(=O)N1CC2(CC(n3nc(N4CCN(CC(C)(C)O)CC45CCC5)c(-c4c(OC)c(Cl)cc5[nH]ncc45)c3C)C2)C1 [Example 168]
3. C=CC(=O)N1CC2(CC(n3nc(N4CCN(C5COC5)C[C@]4(C)CC)c(-c4c(Cl)c(C)cc5[nH]ncc45)c3C)C2)C1 (single isomer, unassigned) [Example 133a]
4. C=CC(=O)N1CC2(CC(n3nc(N4CCC(N5CCOCC5)CC45CCC5)c(-c4c(Cl)c(C)cc5[nH]ncc45)c3C)C2)C1 (single isomer, unassigned) [Example 63a]
5. C=CC(=O)N1CC2(CC(n3nc(N4CCN(C5CCOC5)CC45CCC5)c(-c4c(Cl)c(C)cc5[nH]ncc45)c3C)C2)C1 (single isomer, unassigned) [Example 132d]

A.
1: 12; 2: 302; 3: 1600; 4: 10; 5: 29

Batch lookup, IC50 per entry.
1. C=CC(=O)N1CC2(CC(n3nc(N4CC[C@@H](CN5CC6CCC(C5)O6)CC4(C)C)c(-c4c(Cl)c(Cl)cc5[nH]ncc45)c3C)C2)C1 (single isomer, unassigned) [Example 314b]
2. C=CC(=O)N1CC2(CC(n3nc(N4CC[C@@H](CN5CCN(S(C)(=O)=O)CC5)CC4(C)C)c(-c4c(Cl)c(Cl)cc5[nH]ncc45)c3C)C2)C1 (single isomer, unassigned) [Example 298a]
3. C=CC(=O)N1CC2(CC(n3nc(N4CCc5ncncc5C4)c(-c4c(Cl)c(C)cc5[nH]ncc45)c3C)C2)C1 (single isomer, unassigned) [Example 15b]
4. C=CC(=O)N1CC2(CC(n3nc(N4CCN(Cc5cn(C)nn5)C[C@]4(C)CC)c(-c4c(Cl)c(C)cc5[nH]ncc45)c3C)C2)C1 (single isomer, unassigned) [Example 188b]

A.
52
1000
305
6

====

- system-tested: KRasG12C (M1-K169, biotinylated on the N-terminus) (Homo sapiens (Human), UniProt P01116, G12C)
- assay-summary: Covalent competition assay: scintillation proximity assay (SPA) quantifying covalent modification of KRASG12C
- assay-setup: competition with radiolabeled covalent probe (Compound B/Compound A), 2 hours incubation, 10 nM KRasG12C
What IC50 was measured for each of the following?
Numbers only, in nM.

Examples with answers:
C=CC(=O)N1CC2(CC(n3nc(N4CCN(Cc5cn(C)nn5)C[C@]4(C)CC)c(-c4c(Cl)c(C)cc5[nH]ncc45)c3C)C2)C1 (single isomer, unassigned) [Example 188a]    387
C=CC(=O)N1CC2(CC(n3nc(N4CCN(CCO)CC45CCC5)c(-c4c(Cl)c(C)cc5[nH]ncc45)c3C)C2)C1 (single isomer, unassigned) [Example 162b]    27
C=CC(=O)N1CC2(CC(n3nc(N4CCN(C5COC5)C[C@@]4(C)CC)c(-c4c(Cl)c(C)cc5[nH]ncc45)c3C)C2)C1 (single isomer, unassigned) [Example 143b]    39
C=CC(=O)N1CC2(CC(n3nc(N4CC[C@@H](CN5CCCN(C(C)=O)CC5)CC4(C)C)c(-c4c(Cl)c(Cl)cc5[nH]ncc45)c3C)C2)C1 (single isomer, unassigned) [Example 315b]    7

Batch lookup, IC50 per entry.
1. C=CC(=O)N1CC2(CC(n3nc(N4CC[C@@H](CN5CC6(CCOC6)C5)CC4(C)C)c(-c4c(Cl)c(Cl)cc5[nH]ncc45)c3C)C2)C1 (single isomer, unassigned) [Example 316b]
2. C=CC(=O)N1CC2(CC(n3nc(N4CCN(CCOC)C[C@@]4(C)C(F)F)c(-c4c(Cl)c(C)cc5[nH]ncc45)c3C)C2)C1 (single isomer, unassigned) [Example 179b]

A.
1: 9; 2: 38

Q. Could you share which IC50 value was measured for C=CC(=O)N1CC2(CC(n3nc(N4CC[C@H](CN5CCOCC5)CC4(C)C)c(-c4c(Cl)c(Cl)cc5[nH]ncc45)c3C)C2)C1 (single isomer, unassigned) [Example 214a] ?
A. 290

Source of measurements: patent US20240317721A1
